- experimental system: Aryl hydrocarbon receptor (Homo sapiens) (UniProt P35869)
- Sequence (P35869 whole entry, looked up): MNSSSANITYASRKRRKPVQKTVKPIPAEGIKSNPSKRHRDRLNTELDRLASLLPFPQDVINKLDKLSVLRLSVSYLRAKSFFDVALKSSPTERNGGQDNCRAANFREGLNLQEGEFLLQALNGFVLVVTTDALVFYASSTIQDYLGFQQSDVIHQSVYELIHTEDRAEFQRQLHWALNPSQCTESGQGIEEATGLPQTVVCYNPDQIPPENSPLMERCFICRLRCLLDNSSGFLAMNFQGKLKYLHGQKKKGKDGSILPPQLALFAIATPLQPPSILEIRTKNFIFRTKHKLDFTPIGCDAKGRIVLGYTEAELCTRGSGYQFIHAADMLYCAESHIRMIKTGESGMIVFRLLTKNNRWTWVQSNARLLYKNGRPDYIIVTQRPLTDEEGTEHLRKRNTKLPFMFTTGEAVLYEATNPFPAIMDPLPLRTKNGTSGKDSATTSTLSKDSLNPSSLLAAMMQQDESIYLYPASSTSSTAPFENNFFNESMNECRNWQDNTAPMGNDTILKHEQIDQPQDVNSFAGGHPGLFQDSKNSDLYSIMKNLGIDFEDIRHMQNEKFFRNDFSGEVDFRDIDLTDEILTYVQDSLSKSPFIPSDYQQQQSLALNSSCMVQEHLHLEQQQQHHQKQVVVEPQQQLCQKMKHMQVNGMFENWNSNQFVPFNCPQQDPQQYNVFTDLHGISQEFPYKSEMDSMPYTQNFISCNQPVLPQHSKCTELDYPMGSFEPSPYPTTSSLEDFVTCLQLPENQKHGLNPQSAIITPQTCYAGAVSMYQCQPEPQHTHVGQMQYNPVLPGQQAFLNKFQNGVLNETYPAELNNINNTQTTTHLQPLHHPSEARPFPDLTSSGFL
- protocol notes: AHR activators, primary screen, cell-based, luminescence, luciferase reporter, human (AID 2796);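 note: 0% = vehicle wells and 100% = reference agonist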
- settings: AHR-responsive luciferase reporter cells, at 5 µM, stronger effect = higher value
Hit rate of the full screen: of about 320,000 compounds, about 8,000 (2.5%) were called active. The sample as a whole holds a higher share of actives than the screen did.
metric name: activation (%)

[[record]]
compound = "O=C(Nc1ccccc1Cl)N1CCN(c2ccc3nncn3n2)CC1"
reading = -1.87

[[record]]
compound = "COc1cccc2sc(N(CCCN(C)C)C(=O)C(c3ccccc3)c3ccccc3)nc12"
reading = -0.96

[[record]]
compound = "O=C(COc1ccccc1F)NNC(=O)c1cc(Br)ccc1Cl"
reading = 4.62

[[record]]
compound = "O=C(Nc1cccnc1)c1cc([N+](=O)[O-])ccc1Cl"
reading = 0.88

[[record]]
compound = "COc1ccc(CNC(=O)CN(c2ccc(OC)c(Cl)c2)S(=O)(=O)c2ccc(C)cc2)cc1"
reading = 4.87

[[record]]
compound = "COc1ccccc1OCc1nc2ccccc2s1"
reading = 45.1

[[record]]
compound = "O=C(CN(c1ccc2c(c1)OCCO2)S(=O)(=O)c1ccccc1)Nc1ccc2c(c1)OCO2"
reading = 79.1

[[record]]
compound = "CCN(CC)C(=O)Oc1ccc(Br)cc1C(=O)Nc1ccc(F)c(Cl)c1"
reading = 86.6

[[record]]
compound = "CCN(CC)C(=O)C(=O)Nc1cccc(Br)c1"
reading = 4.98

[[record]]
compound = "O=C(CCS(=O)(=O)Cc1ccccc1)Nc1ccc2c(c1)OCCO2"
reading = 3.19

[[record]]
compound = "COc1cccc2sc(Nc3nc(C)c(C(C)=O)s3)nc12"
reading = 67.4

[[record]]
compound = "NS(=O)(=O)c1ccc(N=Cc2ccc(Br)s2)cc1"
reading = 3.54

[[record]]
compound = "COc1ccc2[nH]c(C(=O)N/N=C/c3cc(OC)c(OC)c(OC)c3)cc2c1"
reading = 30.9

[[record]]
compound = "COc1cccc(OCc2cc(/C=N/NC(=O)c3nc(Cl)c(Cl)c(N)c3Cl)ccc2OC)c1"
reading = 73.8

[[record]]
compound = "CO/N=C/c1ccc(N2CCN(C(=O)c3cccc(Cl)c3)CC2)c([N+](=O)[O-])c1"
reading = -0.18

[[record]]
compound = "O=C(/C=C(O)/C=C/c1ccc(O)cc1)/C=C/c1ccc(O)cc1"
reading = -0.31

[[record]]
compound = "CCOc1cc(/C=N/NC(=O)c2cc(-c3ccccc3)nc3ccccc23)ccc1O"
reading = 16.1

[[record]]
compound = "COc1c(O)cccc1-c1nnn(CCC(=O)OCC(=O)c2ccccc2)n1"
reading = 1.67

[[record]]
compound = "CC(C)C(C(=O)NC1CCCCC1)N(CC1CCCO1)C(=O)CNS(=O)(=O)c1ccc(F)cc1 (configuration not stated)"
reading = -1.33

[[record]]
compound = "COc1ccccc1/C=N/Nc1nc(C)c(C(C)=O)s1"
reading = 33.6

[[record]]
compound = "COc1ccccc1CCNS(=O)(=O)c1cc2c3c(c1)C(C)C(=O)N3CCC2 (configuration not stated)"
reading = 4.39

[[record]]
compound = "Cc1sc2ncnc(N3CCC(C(=O)Nc4nc5ccc(Cl)cc5s4)CC3)c2c1C"
reading = 12.5


---

- experimental system: Aryl hydrocarbon receptor (Homo sapiens)
- protocol notes: AHR activators, primary screen, cell-based, luminescence, luciferase reporter, human (AID 2796);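 note: 0% = vehicle wells and 100% = reference agonist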
- settings: AHR-responsive luciferase reporter cells, at 5 µM
The whole screen tested about 320,000 compounds, of which about 8,000 (2.5%) were called active. No stated cut-off is given here; in the data, active means activation above about 47%; inactive means the rest. The sample holds actives, similar compounds and a random draw of the others, so the mix is not that of the screen.
Possible outcomes: yes for active, no for inactive

[[record]]
molecule = "O=C(Cc1c(F)cccc1Cl)Nc1ccc(-n2cnnn2)cc1"
class = "no"

[[record]]
molecule = "COc1ccc(Nc2ncc(F)c(N3CCOCC3)n2)cc1"
class = "no"

[[record]]
molecule = "Cn1cc(Cl)c(C(=O)NNC(=S)Nc2cccc(Cl)c2)n1"
class = "yes"

[[record]]
molecule = "COc1ccc(OCc2cc(C(=O)N3CCCC3)no2)c2ccccc12"
class = "yes"

[[record]]
molecule = "NC(=O)c1cc2ccccc2o/c1=N/NC(=O)c1cccc(F)c1"
class = "yes"

[[record]]
molecule = "c1ccc(-c2cc(-c3nnc4sc(-c5ccccn5)nn34)[nH]n2)cc1"
class = "no"

[[record]]
molecule = "CSc1ncccc1C(=O)Nc1ccc(C)cn1"
class = "no"

[[record]]
molecule = "COc1ccc2ccccc2c1/C=N/NC(=O)c1cc(C)[nH]n1"
class = "no"

[[record]]
molecule = "CC(NC(=O)CN1CCN(Cc2ccc(Cl)cc2)C1=O)c1ccc2c(c1)OCCO2 (centres undefined)"
class = "no"

[[record]]
molecule = "Fc1cccc(CSc2nnc3ccc(-c4ccncc4)nn23)c1"
class = "no"

[[record]]
molecule = "N=c1oc2ccccc2cc1C(=O)NCc1ccccc1"
class = "no"

[[record]]
molecule = "COc1ccc2ccn(C)c2c1"
class = "no"

[[record]]
molecule = "O=C(Nc1cccnc1Cl)c1cc(-c2ccccc2O)on1"
class = "no"

[[record]]
molecule = "O=C1NC(=O)C(c2ccc(Cl)cc2)N1 (centres undefined)"
class = "no"

[[record]]
molecule = "Cc1ccc(NC(=O)c2cc(-c3ccccc3O)n[nH]2)cc1C"
class = "no"

[[record]]
molecule = "CCCCNC(=O)N1CCCC(N(C)CCc2ccc(OC)c(OC)c2)C1 (centres undefined)"
class = "no"

[[record]]
molecule = "CNS(=O)(=O)c1ccc(C(=O)NCC(=O)NCCc2ccc3c(c2)OCCO3)cc1"
class = "no"

[[record]]
molecule = "O=C(Cc1c(F)cccc1Cl)Nc1ncc([N+](=O)[O-])s1"
class = "yes"

[[record]]
molecule = "Cc1nn(C)cc1C(=O)NNC(=S)Nc1ccc(Cl)cc1"
class = "no"

[[record]]
molecule = "COc1ccccc1-c1cc(C(=O)N2CCCCC2)no1"
class = "no"

[[record]]
molecule = "CSc1ncccc1C(=O)Nc1nc2ccc(F)cc2s1"
class = "yes"

[[record]]
molecule = "Cc1c(CN2CCC(n3nccc3NC(=O)CCc3ccccc3)CC2)cnn1C"
class = "no"

[[record]]
molecule = "CC(=O)O[C@H]1CC[C@@]2(C)[C@@H](CC[C@@H]3[C@@H]2CC[C@]2(C)[C@@H](C(C)(C)O)C[C@@H]32)C1"
class = "no"

[[record]]
molecule = "CC(C)CNC(=S)NNC(=O)c1nn(C)cc1Cl"
class = "no"


---

- experimental system: Aryl hydrocarbon receptor (Homo sapiens) (UniProt P35869)
- protocol notes: AHR activators, primary screen, cell-based, luminescence, luciferase reporter, human (AID 2796);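 note: 0% = vehicle wells and 100% = reference agonist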
- settings: AHR-responsive luciferase reporter cells, at 5 µM
About 8,000 (2.5%) of roughly 320,000 compounds were called active. No stated cut-off is given here; in the data, active means activation above about 47%; inactive means the rest. Many of the other results were omitted from the sample, so actives are more common in it than they were.
Outcomes: true (1) (active), false (0) (inactive)

[[record]]
compound = "Cc1ccc(C(=O)Nc2nc3ccc(Cl)cc3s2)o1"
class = "false (0)"

[[record]]
compound = "O=[N+]([O-])c1ccc(Oc2ccc(F)cc2Br)c2ccncc12"
class = "false (0)"

[[record]]
compound = "O=C1/C(=C/c2ccc3c(c2)OCO3)CCC/C1=C\\c1ccc2c(c1)OCO2"
class = "true (1)"

[[record]]
compound = "COc1cccc(C2=CC(=O)C[C@H](c3ccc(OC)c(OC)c3)C2)c1"
class = "false (0)"

[[record]]
compound = "CCC(CC)COC(=O)C1=C(C)NC(=O)NC1c1ccc([N+](=O)[O-])cc1 (stereo unspecified)"
class = "false (0)"

[[record]]
compound = "CCCc1c(C(=O)Nc2ccc(F)cc2)cnn1-c1ccccc1"
class = "true (1)"

[[record]]
compound = "CCOc1ccc(CN2CCN(CCCc3ccccc3)C(CCO)C2)cc1 (stereo unspecified)"
class = "false (0)"

[[record]]
compound = "COc1ccc(C)cc1NC(=O)c1ccc(-c2ccc(C(C)=O)cc2)o1"
class = "false (0)"

[[record]]
compound = "COc1cccc(C(=O)Nc2cccnc2)c1OC"
class = "false (0)"

[[record]]
compound = "O=C(NNS(=O)(=O)c1ccc(F)cc1)C1CCCCC1"
class = "false (0)"

[[record]]
compound = "CCOC(=O)c1ccc(-c2ccc(C(=O)Nc3cccnc3)o2)cc1"
class = "true (1)"


---

- experimental system: Aryl hydrocarbon receptor (Homo sapiens) (UniProt P35869)
- protocol notes: AHR activators, primary screen, cell-based, luminescence, luciferase reporter, human (AID 2796);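 note: 0% = vehicle wells and 100% = reference agonist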
- settings: AHR-responsive luciferase reporter cells, at 5 µM, stronger effect = higher value
The campaign covered roughly 320,000 compounds. About 8,000 (2.5%) were called active. The full list was thinned out, with actives kept by preference.
Listed here: items and their measured activation.
metric name: activation (%)

[[record]]
compound = "CC1CCc2c(c3ccccc3[nH]c2=O)O1 (configuration not stated)"
metric_name = "activation"
units_of_measure = "%"
reading = 45.7

[[record]]
compound = "COc1cc(NC(=O)c2ccc(-c3csc(C)n3)cc2)c(OC)cc1Cl"
metric_name = "activation"
units_of_measure = "%"
reading = 98.4

[[record]]
compound = "COc1ccc(Nc2oc(-c3ccccc3Cl)nc2C#N)cc1"
metric_name = "activation"
units_of_measure = "%"
reading = -7.03

[[record]]
compound = "COc1cccc(CC(=O)Nc2ccc(-c3csc(C)n3)cc2)c1"
metric_name = "activation"
units_of_measure = "%"
reading = -4.95

[[record]]
compound = "Cn1ccc(=Nc2ccc(NC(=O)c3ccc(N=c4ccn(C)c5ccc([N+](=O)[O-])cc45)cc3)cc2)cc1"
metric_name = "activation"
units_of_measure = "%"
reading = 2.76

[[record]]
compound = "O=C(c1ccc2c(c1)OCO2)N1CCOCC1"
metric_name = "activation"
units_of_measure = "%"
reading = 0.36

[[record]]
compound = "COc1ccc(C(C(O)C(=O)c2c[nH]c3ccccc23)N2CCN(c3ccccc3)CC2)cc1 (configuration not stated)"
metric_name = "activation"
units_of_measure = "%"
reading = 12.8

[[record]]
compound = "Cn1cccc1C(=O)OCC(=O)NCCc1ccccc1"
metric_name = "activation"
units_of_measure = "%"
reading = 7.54

[[record]]
compound = "CCOC(=O)c1c(S(=O)(=O)Nc2cccc(Cl)c2)c(C)n(C)c1C"
metric_name = "activation"
units_of_measure = "%"
reading = 21.5

[[record]]
compound = "COc1cccc(CN(C)CC2CCCN(CCc3ccc(Cl)cc3)C2)c1OC (configuration not stated)"
metric_name = "activation"
units_of_measure = "%"
reading = -2.92

[[record]]
compound = "O=C(NC(=O)c1ccc(Cl)c(Cl)c1)OC1CCS(=O)(=O)C1 (configuration not stated)"
metric_name = "activation"
units_of_measure = "%"
reading = 2.16

[[record]]
compound = "CC(=O)Nc1ccc(NC(=O)CSc2nnc(COc3ccccc3C)n2CC2CCCO2)cc1 (configuration not stated)"
metric_name = "activation"
units_of_measure = "%"
reading = 1.11

[[record]]
compound = "CCOc1ccc(/C=C(/NC(=O)c2ccccc2)C(=O)NCCC(=O)O)cc1"
metric_name = "activation"
units_of_measure = "%"
reading = 3.46

[[record]]
compound = "CCCCC[C@@H]1C=C(C(=O)O)[C@H](c2ccc(C#N)cc2)N1S(=O)(=O)c1ccc(C)cc1"
metric_name = "activation"
units_of_measure = "%"
reading = -1.14

[[record]]
compound = "COc1ccc(/C=C(\\NC(=O)c2ccc(OC)c(OC)c2)C(=O)NCCc2c[nH]c3ccccc23)cc1"
metric_name = "activation"
units_of_measure = "%"
reading = 13.8

[[record]]
compound = "O=C(COc1ccc([N+](=O)[O-])cc1)Nc1cccc(C(=O)Nc2ccccc2C(=O)O)c1"
metric_name = "activation"
units_of_measure = "%"
reading = -3.04

[[record]]
compound = "C=CCN(C(=O)c1cc(C)cc(C)c1)C1(C(=O)Nc2ccccc2)CCN(C(C)C)CC1"
metric_name = "activation"
units_of_measure = "%"
reading = 5.4

[[record]]
compound = "COc1ccc(/C=C(\\C#N)c2c[nH]c3ccccc23)cc1"
metric_name = "activation"
units_of_measure = "%"
reading = 53.6

[[record]]
compound = "Cc1ccsc1C(=O)OCC(=O)Nc1cccc(F)c1"
metric_name = "activation"
units_of_measure = "%"
reading = -0.75

[[record]]
compound = "CCOCC(=O)Nc1cc(OC)c(Cl)cc1OC"
metric_name = "activation"
units_of_measure = "%"
reading = 19.9

[[record]]
compound = "COC(=O)c1c(NC(C)=O)sc(C(=O)Nc2ccccc2OC)c1C"
metric_name = "activation"
units_of_measure = "%"
reading = 47.1

[[record]]
compound = "C=CCn1cc(Cl)cc(C(=O)Nc2ccccc2)c1=O"
metric_name = "activation"
units_of_measure = "%"
reading = 50.9

